system: P388 leukemia ip, CD2F1 mice, survival T/C; test: NCI In Vivo Anticancer Drug Screen. Data for tumor model P388 Leukemia (intraperitoneal) in CD2F1 (CDF1) mice; details: endpoint: median survival time; dose: 100.0 mg/kg/injection; schedule: Q01DX009 (ip); vehicle: suspension in saline; higher = longer survival
Inconclusive results and toxic doses are left out.
measurement.kind: T/C

Summary for this compound, COC1NC(=S)N(C2CCCCC2)C1(C)C (centres undefined) : T/C is 97 % of control

Summary for this compound, COc1ccc2nc(C)c(C(=O)O)c(C(=O)O)c2c1 : T/C is 103 % of control

Summary for this compound, COc1ccc(CSC(=S)Nc2ccc(C)c(Cl)c2)cc1 : T/C is 102 % of control

Summary for this compound, COc1ccc([N+](=O)[O-])cc1Nc1c2ccccc2nc2ccccc12 : T/C is 110 % of control

---

System: P388 leukemia ip, CD2F1 mice, survival T/C
Assay: NCI In Vivo Anticancer Drug Screen. Data for tumor model P388 Leukemia (intraperitoneal) in CD2F1 (CDF1) mice
Settings: endpoint: median survival time; dose: 100.0 mg/kg/injection; schedule: Q01DX005 (ip); vehicle: saline; higher = longer survival
Description: The antitumor activity of compounds was measured in mice bearing transplantable tumors. Survival or tumor size were measured and the results are expressed as the measurement made in the treated group (T) divided by the measurement made in the vehicle treated control group (C). The tumor model used in this assay is P388 Leukemia (intraperitoneal) in CD2F1 (CDF1) mice
Toxic doses and inconclusive results are not listed.
measurement.kind: T/C

Simply: C=CCC(C=C=CCN(C)C)CO (stereo unspecified) , P388 leukemia ip, CD2F1 mice, survival T/C, T/C = 104 % of control

Simply: CCC(O)C(C[N+](=O)[O-])C(=O)OC (stereo unspecified) , P388 leukemia ip, CD2F1 mice, survival T/C, T/C = 107 % of control

Simply: Nc1ccc(C(=O)Nc2ccc3cc(S(=O)(=O)O)cc(S(=O)(=O)O)c3c2)cc1 , P388 leukemia ip, CD2F1 mice, survival T/C, T/C = 99 % of control

Simply: COCC1OC1COC (stereo unspecified) , P388 leukemia ip, CD2F1 mice, survival T/C, T/C = 104 % of control

Simply: CC(=NCc1ccccc1)NOCc1ccccc1 , P388 leukemia ip, CD2F1 mice, survival T/C, T/C = 108 % of control

Simply: CCNC(=O)C(C)O (stereo unspecified) , P388 leukemia ip, CD2F1 mice, survival T/C, T/C = 102 % of control

---

Provide the reported T/C of each item.
tested on: P388 leukemia ip, CD2F1 mice, survival T/C; test: NCI In Vivo Anticancer Drug Screen. Data for tumor model P388 Leukemia (intraperitoneal) in CD2F1 (CDF1) mice; conditions: endpoint: median survival time; dose: 100.0 mg/kg/injection; schedule: Q01DX009 (ip); vehicle: Klucel (hydroxypropylcellulose) (HPC); higher = longer survival
Inconclusive results and toxic doses are left out.

Summary for this compound, CC(C)N1CC(CCO)C(c2ccccc2)(c2ccccc2)C1 (stereo not drawn) : T/C is 97 % of control

Summary for this compound, O=C(O)c1ccc(-c2nn[nH]n2)cc1 : T/C is 92 % of control

Summary for this compound, O=c1[nH]nnc2ccccc12 : T/C is 114 % of control

Summary for this compound, CCCOC(CN(C)C)C(Cl)(Cl)Cl (stereo not drawn) : T/C is 104 % of control

Summary for this compound, CCOC(=O)C1=C(C)O/C(=C/C=C/c2ccccc2)C1=O : T/C is 98 % of control

Summary for this compound, COc1ccc(C/C(N)=N\O)cc1 : T/C is 106 % of control

Summary for this compound, O=C1NC(c2ccccc2Cl)Nc2ccccc21 (stereo not drawn) : T/C is 92 % of control

Summary for this compound, COc1cc[n+](CC(=O)c2c[nH]c3ccccc23)cc1 : T/C is 109 % of control

Summary for this compound, OCc1c(CO)c(C(F)(F)F)n2c1CCC2 : T/C is 104 % of control

Summary for this compound, CCCCCOC(CN(C)C)C(Cl)(Cl)Cl (stereo not drawn) : T/C is 100 % of control

Summary for this compound, COc1cc2c(cc1OC)C1CC(=O)C(CCCCCCC3CN4CCc5cc(OC)c(OC)cc5C4CC3=O)CN1CC2 (stereo not drawn) : T/C is 92 % of control

Summary for this compound, O=C(COc1ccc(Cl)cc1Cl)Nc1ccc(I)cc1C(=O)O : T/C is 92 % of control

Summary for this compound, Clc1ccc(-c2csc(NCC3CCCO3)n2)cc1 (stereo not drawn) : T/C is 108 % of control

---

tested on: P388 leukemia ip, CD2F1 mice, survival T/C; assay: NCI In Vivo Anticancer Drug Screen. Data for tumor model P388 Leukemia (intraperitoneal) in CD2F1 (CDF1) mice; conditions: endpoint: median survival time; dose: 240.0 mg/kg/injection; schedule: Q01DX005 (ip); vehicle: Klucel (hydroxypropylcellulose) (HPC); higher = longer survival
Toxic doses and inconclusive results are not listed.
measurement.kind: T/C

Summary for this compound, CC1C(=O)OC2C1CCC1(C)C=CC(=O)C3(C)OC213 (stereo unspecified) : T/C is 105 % of control

Summary for this compound, CC1SC2(C(=O)Nc3ccc(Cl)cc32)N(c2ccc(Cl)cc2)C1=O (stereo unspecified) : T/C is 108 % of control

Summary for this compound, CCCCC(C(=O)OCC)/C(C)=N\NC(N)=S (stereo unspecified) : T/C is 98 % of control

Summary for this compound, C=C1ON(C)C(c2ccccc2)C1S(=O)(=O)c1ccccc1 (stereo unspecified) : T/C is 98 % of control

Summary for this compound, N#C/C(=C(/N)N1CCOCC1)N1CCOCC1 : T/C is 98 % of control

Summary for this compound, CCOC(=O)C1(C#N)C(c2ccccc2)C(OC)(OC)C1(OC)OC (stereo unspecified) : T/C is 99 % of control

---

system: P388 leukemia ip, CD2F1 mice, survival T/C; experiment: NCI In Vivo Anticancer Drug Screen. Data for tumor model P388 Leukemia (intraperitoneal) in CD2F1 (CDF1) mice; conditions: endpoint: median survival time; dose: 100.0 mg/kg/injection; schedule: Q01DX001 (ip); vehicle: Klucel (hydroxypropylcellulose) (HPC); higher = longer survival
Toxic doses and inconclusive results are not listed.
Provide the reported T/C of each item.

Summary for this compound, O/N=C/c1c(-c2ccccc2)nc2sccn12 : T/C is 94 % of control

Summary for this compound, COc1c(C)cc(C)c(CCl)c1-c1c(CCl)c(C)cc(C)c1OC : T/C is 90 % of control

Summary for this compound, O=C(O)c1c(Cl)n(-c2ccccc2)c2c(C(=O)O)cccc12 : T/C is 97 % of control

Summary for this compound, CCCCCCCCCCCCC1=C(OC)C(NC(=O)CCCCCCCCCCC)=CC(=O)C1=O : T/C is 88 % of control

Summary for this compound, O=C1C2CCC(N1CCc1ccccc1)n1c(=O)n(-c3ccccc3)c(=O)n12 (stereo not drawn) : T/C is 99 % of control

Summary for this compound, N#CC(c1ccc2c(c1)OCO2)N1CCCC1 (stereo not drawn) : T/C is 100 % of control

Summary for this compound, CCC(=O)n1c(Cl)c(/C=N/NC(N)=S)c2ccccc21 : T/C is 95 % of control

Summary for this compound, Cn1nnnc1-c1cccc(F)c1 : T/C is 102 % of control

Summary for this compound, COc1cc2c(cc1OC)C(Cc1cc(Br)sc1Br)N(C(C)=O)CC2 (stereo not drawn) : T/C is 101 % of control

Summary for this compound, CN1C(=O)Cn2c(nn(Cc3ccccc3)c(=O)c2=O)-c2cc(Cl)ccc21 : T/C is 96 % of control

Summary for this compound, N#CN(Cc1ccccc1)C(c1ccccc1)(c1ccccc1)c1ccccc1 : T/C is 90 % of control

Summary for this compound, CCc1nnc2c(c(=O)n(C)c(=O)n2C)[n+]1[O-] : T/C is 109 % of control

Summary for this compound, Cc1[nH]c2cc3c(cc2c(=O)c1Cc1c(C)[nH]c2cc4c(cc2c1=O)CCCC4)CCCC3 : T/C is 87 % of control

---

system: P388 leukemia ip, CD2F1 mice, survival T/C; test: NCI In Vivo Anticancer Drug Screen. Data for tumor model P388 Leukemia (intraperitoneal) in CD2F1 (CDF1) mice; settings: endpoint: median survival time; dose: 100.0 mg/kg/injection; schedule: Q01DX005 (ip); vehicle: saline with Tween-80; higher = longer survival
Toxic doses and inconclusive results are not listed.
Provide the reported T/C of each item.

Summary for this compound, O=C(N/N=C\c1cccc2ccccc12)C(=O)N/N=C/c1cccc2ccccc12 : T/C is 87 % of control

Summary for this compound, CC1CCCN2C(=O)CN(Cc3ccccc3)CC(=O)N12 (stereo not drawn) : T/C is 100 % of control

Summary for this compound, Cc1ccc(N2CC(=O)N3CCCC(C)N3C(=O)C2)cc1 (stereo not drawn) : T/C is 99 % of control

Summary for this compound, COc1ccc(Cl)c2c1[nH]c1nc3nc4cc(Cl)ccc4n3nc12 : T/C is 105 % of control

Summary for this compound, OC1CCC(C2C3CCCCC3C3CCCCC3C2C2CCC(O)CC2)CC1 (stereo not drawn) : T/C is 99 % of control

Summary for this compound, CCc1nc(N)nc(N)c1-c1ccc(OC)c(N)c1 : T/C is 112 % of control

Summary for this compound, CCC(=O)NC1c2ccccc2Oc2ccccc21 : T/C is 100 % of control

Summary for this compound, CCOC(=O)/C(C#N)=C/c1ccc(-c2cc(C(F)(F)F)cc(C(F)(F)F)c2)o1 : T/C is 90 % of control

Summary for this compound, COc1ccccc1NC(=O)CC(=O)N1N=C(C)C(N=Nc2ccc(I)cc2)C1=O (stereo not drawn) : T/C is 100 % of control

Summary for this compound, CCOC(=O)C(N=Nc1ccc(C)cc1Br)C(C)=O (stereo not drawn) : T/C is 93 % of control

Summary for this compound, COc1nc2c(c(=O)n1C)C(=O)CN2C1OC(COC(C)=O)C(OC(C)=O)C(OC(C)=O)C1OC(C)=O (stereo not drawn) : T/C is 108 % of control

Summary for this compound, COc1ccc2c(c1)CN(CCc1ccc([N+](=O)[O-])cc1)CO2 : T/C is 94 % of control

Summary for this compound, NCCCCCCCC(=O)NCCCCCCCC(=O)NCCCCCCCC(=O)NCCCCCCCC(=O)NN : T/C is 100 % of control
